# TEST_SYSTEM: T1, wild type human CD47 (Acro Biosystems, cat. no. CD7-H5227) (human, UniProt Q08722 19-139)
# T1 construct: Bought protein used as SPR analyte; also called Human CD47 wt; wild-type CD47
# T1 sequence (Q08722 19-139 limits assumed): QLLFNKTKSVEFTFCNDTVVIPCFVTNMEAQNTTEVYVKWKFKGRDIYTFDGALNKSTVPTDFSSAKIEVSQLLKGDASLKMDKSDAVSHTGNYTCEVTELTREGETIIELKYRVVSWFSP
# TEST_METHOD_NOTES: SPR, IgG captured, CD47 in flow; exp 4;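 further: rates fitted from SPR association and dissociation curves, KD estimated from them, the other target is a CD47 C33G mutein, used to obtain true monovalent affinity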
Please note: Kd exactly at 8 nM is N. Only values below 8 nM get Y.

- BINDER: "108VH10.Mo / 108VL10.Me (antibody, V domains shown, 4D5-framework series; also called VH10.Mo VL10.Me) VH: EVQLVESGGGLVQPGGSLRLSCAASGFTFSHHWIHWVRQAPGKGLEWVAMIDASDSETRLSDSFKGRFTISADTSKNTAYLQMNSLRAEDTAVYYCSRLGRYYFDYWGQGTLVTVSS VL: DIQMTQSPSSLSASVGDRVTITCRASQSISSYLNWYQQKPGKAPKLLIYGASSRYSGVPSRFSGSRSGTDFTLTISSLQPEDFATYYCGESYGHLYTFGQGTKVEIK"
  QUALITATIVE_LABEL: "Y"
- BINDER: "108VH4.M4-VL1.M1 (antibody, V domains shown, also called original humanized 108C10A6 antibody) VH: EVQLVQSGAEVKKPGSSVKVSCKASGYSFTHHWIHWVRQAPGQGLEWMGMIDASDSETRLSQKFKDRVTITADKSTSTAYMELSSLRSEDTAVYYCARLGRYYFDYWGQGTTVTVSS VL: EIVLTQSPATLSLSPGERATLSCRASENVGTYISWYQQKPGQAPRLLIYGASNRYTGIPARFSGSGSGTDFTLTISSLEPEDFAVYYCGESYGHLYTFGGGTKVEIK"
  QUALITATIVE_LABEL: "Y"
- BINDER: "108VH10.Mp / 108VL10.Me (antibody, V domains shown, 4D5-framework series; constant regions not restated for this series; also called VH10.Mp VL10.Me) VH: EVQLVESGGGLVQPGGSLRLSCAASGFTFSHHWIHWVRQAPGKGLEWVAMIDASDSETRLVDSFKGRFTISADTSKNTAYLQMNSLRAEDTAVYYCSRLGRYYFDYWGQGTLVTVSS VL: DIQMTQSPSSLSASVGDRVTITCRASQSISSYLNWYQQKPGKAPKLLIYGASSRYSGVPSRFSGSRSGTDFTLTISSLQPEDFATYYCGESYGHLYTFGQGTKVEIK"
  QUALITATIVE_LABEL: "N"
- BINDER: "108VH10 / 108VL10.M1 (antibody, V domains shown, 4D5-framework series; also called VH10 VL10.M1; straight-graft antibody) VH: EVQLVESGGGLVQPGGSLRLSCAASGYSFTHHWIHWVRQAPGKGLEWVAMIDPSDSETRLSQKFKDRFTISADTSKNTAYLQMNSLRAEDTAVYYCSRLGRYYFDYWGQGTLVTVSS VL: DIQMTQSPSSLSASVGDRVTITCRASENVGTYISWYQQKPGKAPKLLIYGASNRYTGVPSRFSGSRSGTDFTLTISSLQPEDFATYYCGESYGHLYTFGQGTKVEIK"
  QUALITATIVE_LABEL: "Y"
- BINDER: "108VH10.Mq / 108VL10.Me (antibody, V domains shown, 4D5-framework series; constant regions not restated for this series; also called VH10.Mq VL10.Me) VH: EVQLVESGGGLVQPGGSLRLSCAASGFTFSHHWIHWVRQAPGKGLEWVAMIDASDSETRLSDSVKGRFTISADTSKNTAYLQMNSLRAEDTAVYYCSRLGRYYFDYWGQGTLVTVSS VL: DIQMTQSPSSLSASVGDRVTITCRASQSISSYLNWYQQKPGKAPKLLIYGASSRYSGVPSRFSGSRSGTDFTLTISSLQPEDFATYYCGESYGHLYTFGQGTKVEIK"
  QUALITATIVE_LABEL: "Y"
- BINDER: "108VH10.Mr / 108VL10.Me (antibody, V domains shown, 4D5-framework series; constant regions not restated for this series; also called VH10.Mr VL10.Me) VH: EVQLVESGGGLVQPGGSLRLSCAASGFTFSHHWIHWVRQAPGKGLEWVAMIDASDSETRLVDSVKGRFTISADTSKNTAYLQMNSLRAEDTAVYYCSRLGRYYFDYWGQGTLVTVSS VL: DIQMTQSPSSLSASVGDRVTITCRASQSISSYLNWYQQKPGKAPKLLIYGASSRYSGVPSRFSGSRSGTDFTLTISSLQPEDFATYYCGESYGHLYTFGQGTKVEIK"
  QUALITATIVE_LABEL: "N"
- BINDER: "chimeric antibody 108C10A6 (antibody, V domains shown, Chimeric antibody with mouse variable domains; captured through human Fc; also called VH / VL) VH: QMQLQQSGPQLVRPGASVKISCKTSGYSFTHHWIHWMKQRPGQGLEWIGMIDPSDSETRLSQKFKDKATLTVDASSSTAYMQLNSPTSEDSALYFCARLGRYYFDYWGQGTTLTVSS VL: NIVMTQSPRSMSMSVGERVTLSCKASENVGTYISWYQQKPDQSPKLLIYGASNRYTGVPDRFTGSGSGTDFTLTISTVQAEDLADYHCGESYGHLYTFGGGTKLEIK"
  QUALITATIVE_LABEL: "Y"
